Test: In vivo pharmacokinetic test, drug concentration in blood plasma by LC-MS/MS
Set-up: species or system SD rats
Settings: SD, rat, plasma, po, 10 mg/kg, SD rats, oral 10 mg/kg, 24 h, animal 201M
TEST READOUT: concentration at 24 h (ng/mL)
Return type: number; implicit unit ng/mL.

May I ask what concentration at 24 h has been recorded for CCOc1cccc(Nc2nn(C)c3c2Cc2cc(OCC)c(OCC(N)=O)cc2-3)c1 ?
46.8

----------
Test: In vivo pharmacokinetic test, drug concentration in blood plasma by LC-MS/MS
Design: species or system SD rats
Conditions: male, SD, rat, plasma, iv, 1 mg/kg, SD rats, intravenous 1 mg/kg, 1 h, Mean
Description: 2. Test animal: SD rats, which are 284-304 g before the test, and bought from Shanghai Xipuer-Bikai laboratory animal Co., Ltd. with production license No. SCXK (Hu) 2013-0016, and laboratory animal certificate Nos. 2008001658223 and 2008001658296. […] The content of compound LL-01 in SD rat blood plasma is detected by use of LC-MS/MS method. […]
TEST READOUT: concentration at 1 h (ng/mL)
Response body: numeric value in ng/mL, unit text excluded.

Please give the measured concentration at 1 h for this molecule: CCOc1cccc(Nc2nn(C)c3c2Cc2cc(OCC)c(OCC(N)=O)cc2-3)c1 [LL-01]
884

----------
The following compounds are listed with their measured recovery at 90 min values.
Assay: MDCK cell permeability test
Settings: dog, MDCK, Recovery rate A→B, 90 min; 2nd line of the compound (condition not given)
Write the answer as a number in %, unit excluded.

Examples with answers:
compound="CCOc1cccc(Nc2nn(C)c3c2Cc2cc(OCC)c(OCC(=O)NO)cc2-3)c1 [LL-02]" test_readout="recovery at 90 min" result_unit=% numeric_result=59.2
compound="CC(C)CN(C[C@@H](O)[C@H](Cc1ccccc1)NC(=O)O[C@H]1CCOC1)S(=O)(=O)c1ccc(N)cc1 [Amprenavir, amprenavir, reference compound]" test_readout="recovery at 90 min" result_unit=% numeric_result=95.4

Could you now consider this next compound?
Using the record for CCOc1cccc(Nc2nn(C)c3c2Cc2cc(OCC)c(OCC(N)=O)cc2-3)c1 [LL-01] , report its recovery at 90 min.
69.4

----------
Assay: In vivo pharmacokinetic test, drug concentration in blood plasma by LC-MS/MS
Parameters: species or system SD rats
Details: rat, plasma; male SD rats, single oral 10 mg/kg, animal 201M
TEST READOUT: Tmax

Requested field: Tmax. Item: CCOc1cccc(Nc2nn(C)c3c2Cc2cc(OCC)c(OCC(N)=O)cc2-3)c1 [LL-01]
4 h

----------
Experiment: In vivo pharmacokinetic test, drug concentration in blood plasma by LC-MS/MS
Parameters: species or system SD rats
Conditions: SD, rat, plasma, po, 10 mg/kg, SD rats, oral 10 mg/kg, 24 h, animal 202M
TEST READOUT: concentration at 24 h (ng/mL)
I only need the number, in ng/mL, no unit after it.

Param item = CCOc1cccc(Nc2nn(C)c3c2Cc2cc(OCC)c(OCC(N)=O)cc2-3)c1 ; retrieve measured concentration at 24 h.
17.4

----------
Test: in vitro
Settings: human, microsomes, pH 7.47
The entries below are paired with their reported microsomal CLint at 1 µM.
Please give a number only; it is taken to be in µL/min/mg.

compound="CCOc1cccc(Nc2nn(C)c3c2Cc2cc(OCC)c(OCC(=O)NO)cc2-3)c1 [LL-02]" result_unit=µL/min/mg numeric_result=108

Find the recorded microsomal CLint at 1 µM belonging to CCOc1cccc(Nc2nn(C)c3c2Cc2cc(OCC)c(OCC(N)=O)cc2-3)c1 [LL-01] and report it.
31
